pIC50: −log10 of the molar value.
Hi, quick share: literature pIC50 data for PIK3CD (Human), several sources combined.

// below: answered compounds
>  <compound>
Cc1cccc2cc(Cn3nc(-c4cccc(F)c4)c4c(N)ncnc43)n(-c3ccccc3F)c(=O)c12

>  <value.type>
pIC50

>  <result>
> 5.00

$$$$
>  <compound>
CC(C)N1CCC(Oc2nc([C@H](C)Nc3ccnc4ccnn34)cc3cccc(Cl)c23)CC1

>  <value.type>
pIC50

>  <result>
> 7.00

$$$$

# input for lookup
Request: I have this compound here, Cc1nn(C(C)c2cc(Cl)c(C#N)c3c2OC(C)CN(C2CN(CC(N)=O)C2)C3)c2ncnc(N)c12 (single isomer, unassigned) , and I need its recorded pIC50.
Response: ≥ 7.00

---

Hi, quick share: literature IC50 data for PIK3CD (Human) (UniProt O00329), several sources combined.

// below: answered molecules
>  <molecule>
C[C@H](NC(=O)c1cc(-c2cccc(NS(C)(=O)=O)c2)cnc1N)c1cc2cccc(Cl)c2c(=O)n1-c1ccccc1

>  <value.type>
IC50

>  <result>
> 10000 nM

$$$$
>  <molecule>
Cc1cccc2cc(Cn3nc(-c4cc(O)cc(F)c4)c4c(N)ncnc43)n(C(C)C)c(=O)c12

>  <value.type>
IC50

>  <result>
< 100 nM

$$$$
>  <molecule>
CNC(=O)COc1nc([C@H](C)Nc2ncnc3[nH]cnc23)cc2cccc(Cl)c12

>  <value.type>
IC50

>  <result>
< 100 nM

$$$$

Request: Value wanted: IC50 (PIK3CD (Human) (UniProt O00329)) of entry "CCCS(=O)(=O)Nc1ccc(F)c(C(=O)c2c[nH]c3ncc(-c4cncc(S(C)(=O)=O)c4)cc23)c1F"
Response: ≤ 10000 nM

Request: Value wanted: IC50 (PIK3CD (Human) (UniProt O00329)) of entry "CC(=O)N1CCC(Nc2cnc3ccc(-c4ccc5oc(N)nc5c4)cc3n2)CC1"
Response: < 100 nM

Request: Value wanted: IC50 (PIK3CD (Human) (UniProt O00329)) of entry "Nc1ncnc2c1c(-c1cc(O)cc(F)c1)nn2Cc1cc2cccc(F)c2c(=O)n1-c1ccccc1F"
Response: < 100 nM

Request: Value wanted: IC50 (PIK3CD (Human) (UniProt O00329)) of entry CCNC(=O)N1CC(N2Cc3c(C#N)c(Cl)cc(C(C)n4nc(C)c5c(N)ncnc54)c3OC(C)C2)C1 (single isomer, unassigned)
Response: ≤ 100 nM

Request: Value wanted: IC50 (PIK3CD (Human) (UniProt O00329)) of entry "Cc1cccc2cc(Cn3nc(C4=CCOCC4)c4c(N)ncnc43)n(-c3ccccc3)c(=O)c12"
Response: > 10000 nM

Request: Value wanted: IC50 (PIK3CD (Human) (UniProt O00329)) of entry "C[C@H](Nc1ncnc2scnc12)c1cc2cccc(Cl)c2c(C(=O)N2CCOC[C@@H]2C)n1"
Response: < 100 nM

Request: Value wanted: IC50 (PIK3CD (Human) (UniProt O00329)) of entry "Cc1cccc2cc([C@H](C)Nc3ncnc4[nH]cc(C(N)=O)c34)n(C3CC3)c(=O)c12"
Response: < 100 nM

---

Hi, quick share: literature pIC50 data for UniProtKB O00329, several sources combined.
pIC50: −log10 of the molar value.

// below: answered compounds
>  <test.smiles>
CN1CCN(C(=O)c2cnc3ccc(-c4ccc5oc(N)nc5c4)nn23)CC1

>  <measured.on>
UniProtKB O00329

>  <pIC50>
< 5.00

$$$$
>  <test.smiles>
Nc1ccc(-c2nc(N3CCOCC3)nc3c2cnn3CC(=O)N2CCCC2)cn1

>  <measured.on>
UniProtKB O00329

>  <pIC50>
5.00 to 7.00

$$$$
>  <test.smiles>
C[C@H](Nc1ncnc2[nH]cnc12)c1cc2cccc(Cl)c2c(C(=O)Nc2ccccc2)n1

>  <measured.on>
UniProtKB O00329

>  <pIC50>
> 7.00

$$$$

# input for lookup
Request: I have this compound here, "C[C@H](NC(=O)c1c(N)nn2cccnc12)c1cc2cccc(C#CCNS(C)(=O)=O)c2c(=O)n1-c1ccccc1" , and I need its recorded pIC50.
Response: 5.00 to 6.00
